Ref: patent US10786429B2

Form field: Partition coefficient (one value per entry).
- assay procedure: Partition coefficient in macroporous pHEMA hydrogel
- Type: physicochemical
- condition info: 250 mg gel in 12 mL PBS solution, 15 days; mean ± SD, n=3
Where a name gives a salt, the structure may show the parent alone.

| compound | Partition coefficient |
| --- | --- |
| CC(C)(C)NC[C@H](O)COc1nsnc1N1CCOCC1 [Timolol, timolol maleate] | 6.49 |
| CCN[C@H]1C[C@H](C)S(=O)(=O)c2sc(S(N)(=O)=O)cc21 [Dorzolamide, dorzolamide hydrochloride] | 7.59 |
| C[C@@H]1C[C@H]2[C@@H]3CCC4=CC(=O)C=C[C@]4(C)[C@@]3(F)[C@@H](O)C[C@]2(C)[C@@]1(O)C(=O)CO [Dexamethasone, dexamethasone] | 33.53 |
| CC(C)OC(=O)CCC/C=C\C[C@@H]1[C@@H](CC[C@@H](O)CCc2ccccc2)[C@H](O)C[C@@H]1O [Latanoprost, latanoprost] | 90.18 |
